Readings of TNFa production (fold over LPS alone) for the listed binders
- Tested System: human LILRB2 expressed on cells (human, UniProt Q8N423 22-597)
- Sequence (Q8N423 other isoform, or with tags, fused parts or gaps limits assumed): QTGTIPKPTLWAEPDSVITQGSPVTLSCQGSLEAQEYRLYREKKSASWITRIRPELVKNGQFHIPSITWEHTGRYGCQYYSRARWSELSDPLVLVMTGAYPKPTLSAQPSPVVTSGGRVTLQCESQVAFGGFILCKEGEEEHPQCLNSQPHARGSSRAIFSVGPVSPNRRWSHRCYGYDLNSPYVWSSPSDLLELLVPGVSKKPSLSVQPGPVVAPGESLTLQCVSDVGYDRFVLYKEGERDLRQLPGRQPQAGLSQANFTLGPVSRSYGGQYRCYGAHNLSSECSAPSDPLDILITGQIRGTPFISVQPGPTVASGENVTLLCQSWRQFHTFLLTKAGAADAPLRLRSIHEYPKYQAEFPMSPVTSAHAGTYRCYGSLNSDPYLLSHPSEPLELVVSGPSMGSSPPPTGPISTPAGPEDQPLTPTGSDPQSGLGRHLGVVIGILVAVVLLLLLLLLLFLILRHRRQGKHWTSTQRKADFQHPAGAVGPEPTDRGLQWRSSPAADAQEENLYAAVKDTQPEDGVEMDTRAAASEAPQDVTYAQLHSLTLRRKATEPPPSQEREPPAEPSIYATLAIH
- Experiment Notes: cell-based or functional assay
Metric Name: TNFa production (fold over LPS alone)

1. J-11 (antibody, human IgG4 S228P, kappa, V domains shown, Human IgG4 chimera of murine origin; also called J-11.h) VH: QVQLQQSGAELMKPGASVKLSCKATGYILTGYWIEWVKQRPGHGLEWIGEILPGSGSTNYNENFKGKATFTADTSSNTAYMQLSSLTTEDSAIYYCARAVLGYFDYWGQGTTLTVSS VL: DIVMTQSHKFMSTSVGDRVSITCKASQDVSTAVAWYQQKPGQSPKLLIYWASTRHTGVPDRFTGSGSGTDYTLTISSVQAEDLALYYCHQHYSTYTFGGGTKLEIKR : 7.61
2. J-04 (antibody, human IgG4 S228P, kappa, V domains shown, Human IgG4 chimera of murine origin) VH: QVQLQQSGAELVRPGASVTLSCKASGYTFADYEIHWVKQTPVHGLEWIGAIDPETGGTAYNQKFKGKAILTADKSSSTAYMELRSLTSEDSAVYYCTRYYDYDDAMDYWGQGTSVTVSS VL: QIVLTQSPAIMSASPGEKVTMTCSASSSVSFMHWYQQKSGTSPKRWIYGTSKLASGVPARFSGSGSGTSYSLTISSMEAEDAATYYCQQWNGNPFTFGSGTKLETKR : 1.18
3. J-03 (antibody, human IgG4 S228P, kappa, V domains shown, Human IgG4 chimera of murine origin) VH: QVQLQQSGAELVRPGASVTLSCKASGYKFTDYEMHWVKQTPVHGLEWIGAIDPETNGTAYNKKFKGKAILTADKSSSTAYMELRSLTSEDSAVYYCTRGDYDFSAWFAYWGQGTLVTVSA VL: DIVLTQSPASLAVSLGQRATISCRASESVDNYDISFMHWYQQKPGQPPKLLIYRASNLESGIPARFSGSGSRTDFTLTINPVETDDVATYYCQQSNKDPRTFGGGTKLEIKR : 1.27
4. J-19 (antibody, human IgG4 S228P, kappa, V domains shown, Human IgG4 chimera from a rat immunization; also called J-19.h) VH: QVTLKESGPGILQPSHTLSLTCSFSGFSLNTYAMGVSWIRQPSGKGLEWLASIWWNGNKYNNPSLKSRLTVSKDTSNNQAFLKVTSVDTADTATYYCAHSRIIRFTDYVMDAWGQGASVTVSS VL: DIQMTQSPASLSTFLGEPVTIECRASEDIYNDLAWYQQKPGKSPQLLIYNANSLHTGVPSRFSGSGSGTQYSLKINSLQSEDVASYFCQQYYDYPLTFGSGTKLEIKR : 8.9

Origin of the recorded values: patent US20200339690A1
